# test.name: chemical genetic growth profiling, strain panel (AID 1159580);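 further: tested at 20 µM; growth read once vehicle control cultures reached saturation at 30 °C; 1 = growth at the plate median or of vehicle wells; lower values mean less growth of the strain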
# measurement.parameters: S. cerevisiae deletion strains, growth OD, locus YLR268W, strain sec22, active compounds read low
Screen size: about 5,500 compounds; about 2,000 (36%) were called active. Not shown: some 18% with an inconclusive outcome. Some of the results follow.
measure: normalized growth
Numbers only.

Observe how each entry below is paired with its result.
| molecule | normalized growth |
| --- | --- |
| COc1cc(O)c2c(=O)c(O)c(-c3ccc(O)c(O)c3)oc2c1 | 0.968 |
| COc1ccc(-c2cc(=O)c3c(O)cc(O[C@H]4O[C@H](CO[C@@H]5O[C@@H](C)[C@H](O)[C@@H](O)[C@H]5O)[C@@H](O)[C@H](O)[C@H]4O)cc3o2)cc1 | 1.05 |
| C[N+](C)(C)CC(O)CC(=O)O (stereo not given) | 0.992 |
| C[C@@H]1O[C@@H](OC[C@H]2OC(Oc3c(-c4ccc(OCCO)c(OCCO)c4)oc4cc(OCCO)cc(O)c4c3=O)[C@H](O)[C@@H](O)[C@@H]2O)[C@H](O)[C@H](O)[C@H]1O (stereo not given in full) | 1.03 |

Pending molecule:
Given the molecule CCCCCCCCCCCCCCCCCC(=O)OC(CC(=O)O)C[N+](C)(C)C (stereo not given) , write its reported normalized growth.
0.168
